RUN_DESCRIPTION: qHTS for Inhibitors of Ubiquitin-specific Protease USP2a Using CHOP2 as the Reporter: Cytotox Assay (AID 652170); also: nearly all actives have a fitted effect of over 70% in size
ASSAY_SETUP: HCT116 viability, CellTiter-Glo luminescence, 72 h; series mostly up to 46.1 µM
Records with an inconclusive call do not appear. The source made the active and inactive calls. Calls follow the shape of the dose curve; as a rule, active = well fitted cell-killing curve with a large enough effect; inconclusive = small, poorly fitted or top-dose-only effect, or effect the other way; inactive = flat fitted curve, though single readings scatter.
Classes used: class 1 (active), class 0 (inactive)

INSERT INTO measurements (smiles_record, class_label) VALUES
  ('COc1c(NS(=O)(=O)c2ccc(C)cc2)cccc1C(=O)Nc1nc(-c2ccccc2)cs1', 'class 1'),
  ('Cc1ccc(S(=O)(=O)NCC(=O)Nc2nc(-c3ccccc3)cs2)cc1', 'class 0'),
  ('Clc1nc(CN2CCOCC2)nc2sc3c(c12)CCCC3', 'class 0'),
  ('Cc1ccc(S(=O)(=O)NCCC(=O)Nc2nc(-c3ccccc3)cs2)cc1', 'class 0'),
  ('COc1cc(Cl)ccc1C(=O)Nc1nc(-c2ccccc2)cs1', 'class 0'),
  ('O=C(Nc1nc(-c2ccccc2)cs1)c1ccccc1-n1cnnn1', 'class 0'),
  ('Cc1cccc2c(C(=O)O)cc(Cl)nc12', 'class 0'),
  ('Cc1ccc(-c2cc(C(=O)Nc3ccc(C(=O)O)cc3)c3ccccc3n2)cc1C', 'class 0'),
  ('O=C(Nc1nc(-c2ccccc2)cs1)c1ccncc1NS(=O)(=O)c1cccc2cccnc12', 'class 0'),
  ('O=C(Nc1nc(-c2ccccc2)cs1)c1cccc(NS(=O)(=O)c2nccs2)c1', 'class 0'),
  ('COC(=O)c1ccccc1C(=O)Nc1nc(-c2ccccc2)cs1', 'class 0');

====

RUN_DESCRIPTION: qHTS Assay for Lipid Storage Modulators (AID 1519)
ASSAY_SETUP: Drosophila S3 cells, BODIPY lipid droplet/cell ratio, laser cytometry; measured here: lipid channel max response; cells loaded with oleic acid
Results filed as inconclusive are left out.
Each item that follows carries a reported max response.
PROPERTY: max response (%)

INSERT INTO results (smiles_record, unit_abbreviation, observed_measurement) VALUES
  ('COCCn1c(=O)c(C)nc2cnc(Oc3ccccc3)nc21', '%', 27.5),
  ('Cc1nc2cnc(Nc3ccccc3)nc2n(CCC#N)c1=O', '%', -20.1),
  ('O=c1c(-c2ccc(F)cc2)nc2cnc(N3CCNCC3)nc2n1-c1ccccc1', '%', 25.6),
  ('COCC(=O)N1CCC[C@@]2(CCN(Cc3ccccc3OC)C2)C1', '%', 5.61),
  ('FC(F)(F)c1ccccc1-c1cc(N2CCNCC2)ncn1', '%', 24.8),
  ('COc1ncc2nc(-c3ccc(F)cc3)c(=O)n(C)c2n1', '%', 25.2);

====

RUN_DESCRIPTION: qHTS for inhibitors of ER calcium dysfunction: SERCaMP assay screened against the NCATS CANVASS Library (AID 1347393); also: nearly all actives have a fitted effect of over 40% in size; also: potency is read from the fitted curve at half-maximal effect
ASSAY_SETUP: SH-SY5Y GLuc-SERCaMP (Gaussia luciferase released on ER calcium loss) secretion, thapsigargin, luminescence; series mostly up to 76.6 µM
Source text: Natural products and their derivatives continue to be wellsprings of nascent therapeutic potential. […] To address this issue, the Canvass library of natural products was assembled (https://tripod.nih.gov/canvass), in collaboration with academic and industry researchers, for quantitative high-throughput screening (qHTS) across a diverse set of cell-based and biochemical assays. […]
Records with an inconclusive call do not appear. Calls of active or inactive are those of the source. The call rests on the fitted dose curve; in most records, active means well fitted inhibition curve with a large enough effect; inconclusive means small, poorly fitted or top-dose-only effect; inactive means no such curve, though single readings can be large or run the other way.
PROPERTY: Potency

INSERT INTO measurements (molecule, observed_measurement) VALUES
  ('O=C1CC(c2ccc(O)cc2)Oc2ccccc21 (stereo not given)', '34.3 µM (active)'),
  ('C[C@@H]1CC[C@]2(C(=O)O)CC[C@]3(C)C(=C2[C@H]1C)CC[C@@H]1[C@@]2(C)CC[C@H](O)C(C)(C)[C@@H]2CC[C@]13C', 'inactive'),
  ('CC(CCC[C@]1(C)C(=O)C=C[C@@]23C[C@]4(C)O[C@@H](C[C@@H]4[C@H]2O)C31)C(=O)O (stereo not given in full)', 'inactive'),
  ('O=C1OC(CCO)c2cccc(O)c21 (stereo not given)', 'inactive'),
  ('COC12OC1(C13OC1(OC)C(=O)c1cc4cc(C)oc(=O)c4c(O)c1C3O)C(O)c1c(cc3cc(C)oc(=O)c3c1O)C2=O (stereo not given)', 'inactive');
